Origin of the recorded values: the supplement of paper PMC10065799

# target system: EPHB2 (UniProt P29323)
# Sequence (P29323 whole entry, looked up): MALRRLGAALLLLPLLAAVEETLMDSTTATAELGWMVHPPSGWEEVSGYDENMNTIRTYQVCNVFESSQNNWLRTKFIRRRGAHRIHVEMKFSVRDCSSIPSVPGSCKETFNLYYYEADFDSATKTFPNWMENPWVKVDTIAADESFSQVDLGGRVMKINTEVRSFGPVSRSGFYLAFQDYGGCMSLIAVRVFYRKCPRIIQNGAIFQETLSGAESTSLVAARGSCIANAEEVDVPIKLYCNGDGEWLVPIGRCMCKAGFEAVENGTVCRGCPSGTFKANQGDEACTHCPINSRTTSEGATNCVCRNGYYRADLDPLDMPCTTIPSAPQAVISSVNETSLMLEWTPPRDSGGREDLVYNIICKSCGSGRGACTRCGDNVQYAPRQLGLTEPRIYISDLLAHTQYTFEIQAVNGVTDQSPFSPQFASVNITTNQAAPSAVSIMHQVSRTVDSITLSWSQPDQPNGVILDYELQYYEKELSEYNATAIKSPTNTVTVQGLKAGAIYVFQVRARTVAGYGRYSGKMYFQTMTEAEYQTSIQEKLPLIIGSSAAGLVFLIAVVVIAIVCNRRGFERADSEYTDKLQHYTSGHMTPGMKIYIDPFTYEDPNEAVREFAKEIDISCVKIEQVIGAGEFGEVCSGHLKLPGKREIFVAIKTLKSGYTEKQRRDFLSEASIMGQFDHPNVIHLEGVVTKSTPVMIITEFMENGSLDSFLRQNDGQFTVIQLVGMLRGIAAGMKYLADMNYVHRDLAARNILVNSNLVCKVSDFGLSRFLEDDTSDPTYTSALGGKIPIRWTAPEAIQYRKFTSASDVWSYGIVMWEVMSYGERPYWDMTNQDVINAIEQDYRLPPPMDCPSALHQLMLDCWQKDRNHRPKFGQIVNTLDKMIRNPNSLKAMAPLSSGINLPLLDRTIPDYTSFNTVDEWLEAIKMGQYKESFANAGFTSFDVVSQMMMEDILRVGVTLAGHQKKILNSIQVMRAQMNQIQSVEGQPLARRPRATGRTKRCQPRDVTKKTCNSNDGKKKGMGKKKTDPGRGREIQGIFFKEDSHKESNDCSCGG
# assay protocol: phosphorylation enrichment, bacterial display (enrichment ratio); higher = better substrate or ligand; peptides without Tyr show the background;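 further: 11-residue human phosphosite peptides and single-mutation variants displayed on the E. coli surface, counted by deep sequencing, each peptide's frequency after selection divided by its frequency in the unselected input library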;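 further: frequency after pTyr selection over input frequency; kinase dosed for 20-30% of maximal phosphorylation in three min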
Kind request: treat 0.6 as inclusive, so phosphorylation enrichment at 0.6 or higher is Yes, anything lower is No.

q: Entry ILKPDYQPLAI [HYDIN_Y1072] : is its phosphorylation enrichment no less than 0.6?
a: No

q: Entry FMRGMYFRMTD [PLA2G6_Y541_K545T_YF] : is its phosphorylation enrichment no less than 0.6?
a: No

q: Entry EEGNPYFSSAR [MCCC2_Y520_YF] : is its phosphorylation enrichment no less than 0.6?
a: Yes

q: Entry SLQSEYVHYGG [CDC14A_Y591] : is its phosphorylation enrichment no less than 0.6?
a: Yes

q: Entry HNLDFYKKTTN [FGFR3_Y648_YF] : is its phosphorylation enrichment no less than 0.6?
a: Yes

q: Entry GESKDYALHVG [SVIL_Y185] : is its phosphorylation enrichment no less than 0.6?
a: Yes

q: Entry KYVVVYFREID [IL17RB_Y447] : is its phosphorylation enrichment no less than 0.6?
a: No

q: Entry AQQPIYIRVEG [NLRP7_Y318_V319I] : is its phosphorylation enrichment no less than 0.6?
a: Yes

q: Entry DSILVYQRKEQ [USH2A_Y1909_G1911R] : is its phosphorylation enrichment no less than 0.6?
a: No

q: Entry KLFYIYTSGTT [SLC27A4_Y245] : is its phosphorylation enrichment no less than 0.6?
a: Yes

q: Entry GVRLFYRVMES [RB1_Y454_YF] : is its phosphorylation enrichment no less than 0.6?
a: No

q: Entry IVRSLYEDQED [VHL_Y185_L188Q] : is its phosphorylation enrichment no less than 0.6?
a: Yes

q: Entry IPGRFYETGSI [PAX2_Y73_L69P_YF] : is its phosphorylation enrichment no less than 0.6?
a: Yes

q: Entry TFEFRYLEDQD [CNOT3_Y746_R750Q_YF] : is its phosphorylation enrichment no less than 0.6?
a: No

q: Entry LSSVSYVGCSL [ADGRD1_Y571_I569V] : is its phosphorylation enrichment no less than 0.6?
a: Yes

q: Entry NPQKPYFIRLF [WAS_Y83_S82P_YF] : is its phosphorylation enrichment no less than 0.6?
a: No

q: Entry LENSTYQFIHV [CRB1_Y760_R764H_YF] : is its phosphorylation enrichment no less than 0.6?
a: Yes

q: Entry TEFSQYMRRKN [MAX_Y73_I71S_YF] : is its phosphorylation enrichment no less than 0.6?
a: Yes

q: Entry CKLVDYDSARH [BIN1_Y150_R145C] : is its phosphorylation enrichment no less than 0.6?
a: No

q: Entry KRISCYEARFQ [PFKFB3_Y194_S197R_YF] : is its phosphorylation enrichment no less than 0.6?
a: No

q: Entry ADARMYGVLPW [PLP1_Y207] : is its phosphorylation enrichment no less than 0.6?
a: Yes

q: Entry LNCIFYKDQTG [RS1_Y166_W163C_YF] : is its phosphorylation enrichment no less than 0.6?
a: Yes

q: Entry AKRKNYAPVTM [CFAP47_Y557_A561T] : is its phosphorylation enrichment no less than 0.6?
a: No

q: Entry RQAQAYRGQRV [TSHR_Y706] : is its phosphorylation enrichment no less than 0.6?
a: Yes

q: Entry RKKEEYKMAPY [F8_Y1990_L1994P] : is its phosphorylation enrichment no less than 0.6?
a: Yes

q: Entry KQRKEYMHRWQ [IQGAP2_Y710_R714W] : is its phosphorylation enrichment no less than 0.6?
a: Yes

q: Entry MCVKSYTIHFS [F5_Y2153_Y2149C_YF] : is its phosphorylation enrichment no less than 0.6?
a: Yes

q: Entry DPTNTYARPAE [SGMS2_Y24] : is its phosphorylation enrichment no less than 0.6?
a: No

q: Entry NTPNTYLRVNV [ADD2_Y440] : is its phosphorylation enrichment no less than 0.6?
a: No

q: Entry FVPSNYVAEDR [FRK_Y104_I100V_YF] : is its phosphorylation enrichment no less than 0.6?
a: Yes

q: Entry AEPPDYSPVTQ [ADGRG2_Y285_H290Q] : is its phosphorylation enrichment no less than 0.6?
a: Yes

q: Entry HEKKAYSFCGT [RPS6KA3_Y226] : is its phosphorylation enrichment no less than 0.6?
a: Yes

q: Entry GHLFAYNWISI [BEST1_Y227_D228N_YF] : is its phosphorylation enrichment no less than 0.6?
a: No

q: Entry SEKIVYGHVDD [ACO2_Y71_L74V] : is its phosphorylation enrichment no less than 0.6?
a: No
